Target System: Solute carrier family 2, facilitated glucose transporter member 1 (Homo sapiens) (UniProt P11166)
Sequence (P11166 whole entry): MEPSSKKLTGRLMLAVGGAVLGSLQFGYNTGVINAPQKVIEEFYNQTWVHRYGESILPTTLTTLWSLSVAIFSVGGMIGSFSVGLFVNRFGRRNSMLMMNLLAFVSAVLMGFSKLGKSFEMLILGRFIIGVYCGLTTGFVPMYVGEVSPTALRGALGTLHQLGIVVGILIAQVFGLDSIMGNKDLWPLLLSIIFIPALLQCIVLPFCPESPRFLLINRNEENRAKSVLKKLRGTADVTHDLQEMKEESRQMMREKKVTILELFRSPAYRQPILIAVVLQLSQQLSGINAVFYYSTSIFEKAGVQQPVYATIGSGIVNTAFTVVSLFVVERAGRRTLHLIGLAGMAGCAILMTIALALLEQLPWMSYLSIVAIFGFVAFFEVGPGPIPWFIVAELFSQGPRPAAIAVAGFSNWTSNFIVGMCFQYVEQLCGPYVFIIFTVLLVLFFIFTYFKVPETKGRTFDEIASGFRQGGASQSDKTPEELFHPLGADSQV
Assay Comment: ST_JUDE_LEISH: Cytotoxicity at 2uM final concentration against transgenic Leishmania Mexicana promastigotes LmGLUT1 that are glucose transport deficient and complemented with the human glucose transporter GLUT1. Activity is measured by DNA content using SYBR green in vitro
Format: functional
Kindly state inhibition for each of the entries shown.
Dear colleague, please return just the value in %, with no unit written.

Query: What does the data say about its inhibition? Entry: Cc1ccc(Nc2ccnc3ccc(C(F)(F)F)cc23)cc1O
Reply: 4.92

Query: Next entry: CCc1ccc(CN2CCC(CNC(=O)c3cc(-c4cccc(C(F)(F)F)c4)cs3)C2)cc1 (stereo unspecified)
Reply: -2.78

Query: Next entry: Clc1ccc2c(NN=Cc3ccccc3)ccnc2c1
Reply: 7.48

Query: Next entry: Cc1ccc(Sc2ccc(NC(=O)CN3CCN(C(=O)c4ccco4)CC3)cc2)cc1C
Reply: 9.84

Query: Next entry: COc1ccc(CNCc2ccccc2)cc1-c1ccc(S(=O)(=O)NCCN2CCCC2)cc1
Reply: 2.89

Query: Next entry: CC(=O)c1c(Cc2cccc(C(F)(F)F)c2)c[nH]c1C
Reply: 5.85
